Test system: Bacillus megaterium strain H491
Assay: Chemical sensitivity, Biolog Phenotypic Microarray
Format: cell-based
Settings: Biolog Phenotypic Microarray, 25° C.
MEASURE NAME: H491 susceptible to compound

Example entries begin here.
* Nc1ccc(S(=O)(=O)Nc2nccs2)cc1 | susceptible
* CCCCCCCCCCCC[N+](C)(C)CCOc1ccccc1 [Domiphen bromide] | susceptible
* Cc1onc(-c2ccccc2)c1C(=O)N[C@@H]1C(=O)N2[C@@H]1SC(C)(C)[C@@H]2C(=O)O | susceptible
* Cc1ccc2c(Cl)cc(Cl)c(O)c2n1 [5,7-Dichloro-8-hydroxyquinaldine] | susceptible
* O.c1cnc2c(c1)ccc1cccnc12 [1,10-Phenanthroline Monohydrate] | susceptible
* [Cl][Cd][Cl] [Cadmium chloride] | susceptible

*Q* Test system Bacillus megaterium strain H491; read-out H491 susceptible to compound; what value for "CC(C)c1nc2nc(N)nc(N)c2nc1C(C)C" ?
*A* susceptible

*Q* Test system Bacillus megaterium strain H491; read-out H491 susceptible to compound; what value for "CO/N=C(\C(=O)N[C@@H]1C(=O)N2C(C(=O)O)=C(COC(N)=O)CS[C@H]12)c1ccco1" ?
*A* susceptible

*Q* Test system Bacillus megaterium strain H491; read-out H491 susceptible to compound; what value for "Nc1ccc2cc3ccc(N)cc3nc2c1" ?
*A* susceptible

*Q* Test system Bacillus megaterium strain H491; read-out H491 susceptible to compound; what value for "CCn1cc(C(=O)O)c(=O)c2ccc(C)nc21" ?
*A* susceptible

*Q* Test system Bacillus megaterium strain H491; read-out H491 susceptible to compound; what value for O=C1C=C2C(=CCOC2O)O1 (centres unmarked) ?
*A* susceptible

*Q* Test system Bacillus megaterium strain H491; read-out H491 susceptible to compound; what value for "CCCCCCCCCCCC[N+](C)(C)CCCS(=O)(=O)[O-]" ?
*A* susceptible

*Q* Test system Bacillus megaterium strain H491; read-out H491 susceptible to compound; what value for O=C(O)c1ccccc1S [Thiosalicylate] ?
*A* susceptible

*Q* Test system Bacillus megaterium strain H491; read-out H491 susceptible to compound; what value for CC1(S(=O)(=O)[O-])CC(=O)c2ccccc2C1=O.[Na+] (centres unmarked) [Menadione, sodium bisulfite] ?
*A* susceptible

*Q* Test system Bacillus megaterium strain H491; read-out H491 susceptible to compound; what value for CCCCC(CC)CNC(=N)NC(=N)NCCCCCCNC(=N)NC(=N)NCC(CC)CCCC (centres unmarked) ?
*A* susceptible

*Q* Test system Bacillus megaterium strain H491; read-out H491 susceptible to compound; what value for "O=C(O)c1cc(O)c(O)c(O)c1" ?
*A* susceptible

*Q* Test system Bacillus megaterium strain H491; read-out H491 susceptible to compound; what value for "Cc1cc(NS(=O)(=O)c2ccc(N)cc2)no1" ?
*A* susceptible

*Q* Test system Bacillus megaterium strain H491; read-out H491 susceptible to compound; what value for "CN(C)c1ccc(C(=C2C=CC(=[N+](C)C)C=C2)c2ccc(N(C)C)cc2)cc1" ?
*A* susceptible

*Q* Test system Bacillus megaterium strain H491; read-out H491 susceptible to compound; what value for "CCN(CC)CC(=O)Nc1c(C)cccc1C" ?
*A* susceptible

*Q* Test system Bacillus megaterium strain H491; read-out H491 susceptible to compound; what value for "CC(=O)OCC1=C(C(=O)O)N2C(=O)[C@@H](NC(=O)Cc3cccs3)[C@H]2SC1" ?
*A* susceptible
